Taken from patent US20060014723A1.

Test system: T. b. rhodesiense STIB 900
Assay: African sleeping sickness in vitro screening model (Alamar Blue)
Assay type: cell-based, Trypanosoma brucei rhodesiense
Please note: T. b. rhodesiense IC50 exactly at 1 µg/mL is no. Only values below 1 µg/mL get yes.

// below: answered compounds
{"smiles str": "C=CB(Oc1cccc2cccnc12)c1c(C)noc1C", "study system": "T. b. rhodesiense STIB 900", "label value": "yes"}
{"smiles str": "Clc1ccc(B(Oc2c(I)cc(Cl)c3cccnc23)c2ccc(Cl)cc2)cc1", "study system": "T. b. rhodesiense STIB 900", "label value": "no"}
{"smiles str": "CN(C)Cc1ccc(B(Oc2cccc3cccnc23)c2ccc(C#N)cc2)cc1", "study system": "T. b. rhodesiense STIB 900", "label value": "yes"}
{"smiles str": "Cc1ccc(B(OC(=O)c2ncccc2N)c2ccc(C)c(Cl)c2)cc1Cl", "study system": "T. b. rhodesiense STIB 900", "label value": "no"}

Here is the next item to consider.
Problem: Find out if reported T. b. rhodesiense IC50 for "O=C(OB(c1cccnc1)c1cccc(Cl)c1)c1ncccc1O" is less than 1 µg/mL
Solution: no

---

System: T. b. rhodesiense STIB 900
Experiment: African sleeping sickness in vitro screening model (Alamar Blue)
Format: cell-based, Trypanosoma brucei rhodesiense
reported metric: T. b. rhodesiense IC50 (µg/mL)
# output: bare number, implied unit µg/mL

{"compound": "CSc1cccc(B(Oc2cccc3cccnc23)c2cccc(Cl)c2)c1 [Compound 107]", "T. b. rhodesiense IC50, µg/mL": 0.365}
{"compound": "CSc1cccc(B(Oc2cccc3cccnc23)c2cccc(SC)c2)c1 [Compound 87]", "T. b. rhodesiense IC50, µg/mL": 0.3}
{"compound": "Fc1cc(B(Oc2cccc3cccnc23)c2ccc(Cl)c(F)c2)ccc1Cl [Compound 89]", "T. b. rhodesiense IC50, µg/mL": 0.41}

CN(C)CCOc1ccc(B(Oc2cccc3cccnc23)c2ccc(Cl)cc2)cc1 [Compound 104] has a reported T. b. rhodesiense IC50 of 1.24

Fc1cccc(B(Oc2cccc3cccnc23)c2ccc(Cl)c(C(F)(F)F)c2)c1 [Compound 115] has a reported T. b. rhodesiense IC50 of 0.465

C=CB(Oc1cccc2cccnc12)c1cccc(C2=NC(C)(C)CO2)c1 [Compound 93] has a reported T. b. rhodesiense IC50 of 0.32

Fc1cc(B(Oc2cccc3cccnc23)c2cccc(Cl)c2)cc(C(F)(F)F)c1 [Compound 123] has a reported T. b. rhodesiense IC50 of 0.31

---

Test system: T. b. rhodesiense STIB 900
Test: African sleeping sickness in vitro screening model (Alamar Blue)
Type: cell-based, Trypanosoma brucei rhodesiense
reported metric: T. b. rhodesiense IC50
Reply with the number, then its unit.

{"compound": "O=C(O)CCCOc1cccnc1C(=O)OB(c1cccc(Cl)c1)c1cccc(Cl)c1", "T. b. rhodesiense IC50": "31.1 µg/mL"}
{"compound": "Cc1cc(Cl)ccc1B(OC(=O)c1ncccc1O)c1ccc(Cl)cc1C", "T. b. rhodesiense IC50": "1.7 µg/mL"}
{"compound": "Cc1cc(C)c2cccnc2c1OB(c1ccc(F)cc1)c1ccc(Cl)cc1", "T. b. rhodesiense IC50": "0.36 µg/mL"}

"C=CB(Oc1cccc2cccnc12)c1ccc(F)c(Cl)c1" has a reported T. b. rhodesiense IC50 of 0.5865 µg/mL

Nc1cccc(C(=O)OB(c2ccc(Cl)cc2)c2ccc(Cl)cc2)n1 [Compound 50] has a reported T. b. rhodesiense IC50 of 9.45 µg/mL

"O=C(OB(c1ccc(Cl)cc1)c1ccc(Cl)cc1)c1ncccc1OCCN1CCOCC1" has a reported T. b. rhodesiense IC50 of 19.8 µg/mL

"CN(C)Cc1ccc(B(Oc2cccc3cccnc23)c2cc(F)cc(C(F)(F)F)c2)cc1" has a reported T. b. rhodesiense IC50 of 0.42 µg/mL

"N#Cc1cccc(B(OC(=O)c2ncccc2O)c2cccnc2)c1" has a reported T. b. rhodesiense IC50 of 0.86 µg/mL

"C=CB(Oc1cccc2cccnc12)c1ccc(F)nc1" has a reported T. b. rhodesiense IC50 of 0.3 µg/mL

"Fc1ccc(B(Oc2c(Cl)cc(Cl)c3cccnc23)c2ccc(Cl)cc2)cc1" has a reported T. b. rhodesiense IC50 of 1.1 µg/mL

"Cc1ccc(B(OC(=O)c2ncccc2C(=O)O)c2ccc(C)c(Cl)c2)cc1Cl" has a reported T. b. rhodesiense IC50 of 8 µg/mL

"CS(=O)(=O)Nc1ccc(B(Oc2cccc3cccnc23)c2cccc(Cl)c2)cc1" has a reported T. b. rhodesiense IC50 of 0.305 µg/mL

---

Tested on: Trypanosoma cruzi Tulahuen C2C4 strain
Test: Chagas disease in vitro screening model (beta-galactosidase strain in L-6 cells)
Format: cell-based
Details: Trypanosoma cruzi, TULAHUEN, L6; read-out: T. cruzi IC50
Please note: IC50 exactly at 0.8 µg/mL is no. Only values below 0.8 µg/mL get yes.

// below: answered compounds
{"smiles str": "N#Cc1cccc(B(Oc2cccc3cccnc23)c2ccccc2F)c1", "study system": "Trypanosoma cruzi Tulahuen C2C4 strain", "label value": "no"}
{"smiles str": "CC1(C)COC(c2cccc(B(Oc3cccc4cccnc34)c3cccc(F)c3)c2)=N1", "study system": "Trypanosoma cruzi Tulahuen C2C4 strain", "label value": "no"}
{"smiles str": "Fc1cc(F)cc(B(Oc2cccc3cccnc23)c2ccc(Cl)cc2)c1", "study system": "Trypanosoma cruzi Tulahuen C2C4 strain", "label value": "yes"}
{"smiles str": "Fc1cccc(B(Oc2cccc3cccnc23)c2ccc(Cl)c(Cl)c2)c1", "study system": "Trypanosoma cruzi Tulahuen C2C4 strain", "label value": "no"}

Here is the next item to consider.
Problem: Find out if reported IC50 for "COc1ccc(B(Oc2cccc3cccnc23)c2ccc(Cl)cc2)cc1F" is less than 0.8 µg/mL
Solution: no

---

Recorded T. b. rhodesiense IC50 by entry
Test system: T. b. rhodesiense STIB 900
Experiment: African sleeping sickness in vitro screening model (Alamar Blue)
Type: cell-based, Trypanosoma brucei rhodesiense
# output: bare number, implied unit µg/mL

{"smiles str": "N#Cc1cccc(B(Oc2cccc3cccnc23)c2ccc(F)c(F)c2)c1", "T. b. rhodesiense IC50 (µg/mL)": 0.435}

"CC1CCN(S(=O)(=O)c2ccc(B(Oc3cccc4cccnc34)c3ccc(Cl)cc3)cc2)CC1" has a reported T. b. rhodesiense IC50 of 0.552

"CN(C)Cc1ccc(B(Oc2cccc3cccnc23)c2cccc(C3=NC(C)(C)CO3)c2)cc1" has a reported T. b. rhodesiense IC50 of 0.595

"C=CB(Oc1c(Cl)cc(Cl)c2ccc(C)nc12)c1cccnc1" has a reported T. b. rhodesiense IC50 of 1.19
